Entries and their measured inhibition at 1 µM follow.
# target.of.assay: 12-Lipoxygenase (Rattus norvegicus, UniProt F1LQ70)
# Construct: from tissue; host or cells: Wistar rat platelets (PRP mixed with PPP, from citrated aortic blood)
# assay.method.text: 12-Lipoxygenase inhibitory action: 12-HETE production in Wistar rat platelets (HPLC)
# Type: cell-based
# condition.context: 10^-6 M, read-out: 12-Lipoxygenase Inhibitory Action, % Inhibition (IE)
Provide the reading as a plain figure in %.

Here is how some compounds turned out for inhibition at 1 µM.
compound | recorded.value
CCC/C=C\C1(C)Cc2c(C)c(O)c(C)c(C)c2O1 (stereo not drawn) | 100
Cc1ccc(CCC2(C)Cc3c(C)c(O)c(C)c(C)c3O2)cc1 (stereo not drawn) | 49
Cc1c(C)c2c(c(C)c1O)CC(C)(/C=C\CCc1ccccc1)O2 (stereo not drawn) | 98

// below: inhibition at 1 µM requested for another compound
Inquiry: Recorded inhibition at 1 µM of Cc1c(C)c2c(c(C)c1O)CC(C)(CC#N)O2 (stereo not drawn) , please.
Reply text: 14

---

Entries and their measured inhibition at 10 µM follow.
# target.of.assay: 12-Lipoxygenase (Rattus norvegicus, UniProt F1LQ70)
# Construct: from tissue; host or cells: Wistar rat platelets (PRP mixed with PPP, from citrated aortic blood)
# Sequence (F1LQ70 1-663): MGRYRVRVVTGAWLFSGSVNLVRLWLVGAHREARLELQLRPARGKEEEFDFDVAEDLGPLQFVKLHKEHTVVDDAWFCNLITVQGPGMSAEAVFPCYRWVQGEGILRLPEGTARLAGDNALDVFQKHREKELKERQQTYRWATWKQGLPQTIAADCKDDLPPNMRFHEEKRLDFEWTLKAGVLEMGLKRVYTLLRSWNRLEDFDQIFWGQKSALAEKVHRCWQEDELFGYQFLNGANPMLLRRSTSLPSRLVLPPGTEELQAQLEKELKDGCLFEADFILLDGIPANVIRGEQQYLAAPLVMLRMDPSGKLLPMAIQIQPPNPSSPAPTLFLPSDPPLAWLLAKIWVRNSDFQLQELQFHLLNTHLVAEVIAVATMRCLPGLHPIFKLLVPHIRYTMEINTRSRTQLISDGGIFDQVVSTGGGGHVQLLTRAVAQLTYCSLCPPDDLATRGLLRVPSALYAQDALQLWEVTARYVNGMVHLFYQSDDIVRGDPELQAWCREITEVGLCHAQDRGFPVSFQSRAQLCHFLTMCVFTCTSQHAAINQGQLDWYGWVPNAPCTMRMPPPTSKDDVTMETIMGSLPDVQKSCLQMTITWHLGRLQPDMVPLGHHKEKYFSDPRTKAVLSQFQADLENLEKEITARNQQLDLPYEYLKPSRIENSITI
# assay.method.text: 12-Lipoxygenase inhibitory action: 12-HETE production in Wistar rat platelets (HPLC)
# Type: cell-based
# condition.context: 10^-5 M, read-out: 12-Lipoxygenase Inhibitory Action, % Inhibition (IE)
Provide the reading as a plain figure in %.

Here is how some molecules turned out for inhibition at 10 µM.
molecule | target.of.assay | inhibition at 10 µM / %
CCCCCCC/C=C\C1(C)Cc2c(C)c(O)c(C)c(C)c2O1 (stereo not shown) [Compound 38] | 12-Lipoxygenase (Rattus norvegicus, UniProt F1LQ70) | 99
COc1ccc(CCC2(C)Cc3c(C)c(O)c(C)c(C)c3O2)cc1 (stereo not shown) [Compound 26] | 12-Lipoxygenase (Rattus norvegicus, UniProt F1LQ70) | 99
CCCCCC1(C)Cc2c(C)c(O)c(C)c(C)c2O1 (stereo not shown) [Compound 37] | 12-Lipoxygenase (Rattus norvegicus, UniProt F1LQ70) | 100

// below: inhibition at 10 µM requested for another molecule
Inquiry: Recorded inhibition at 10 µM of Cc1c(C)c2c(c(C)c1O)CC(C)(/C=C/Cc1ccccc1)O2 (stereo not shown) [Compound 17] , please.
Reply text: 99

---

# target.of.assay: 12-Lipoxygenase (Rattus norvegicus)
# Construct: from tissue; host or cells: Wistar rat platelets (PRP mixed with PPP, from citrated aortic blood)
# assay.method.text: 12-Lipoxygenase inhibitory action: 12-HETE production in Wistar rat platelets (HPLC)
# Format: cell-based
# condition.context: 10^-7 M, read-out: 12-Lipoxygenase Inhibitory Action, % Inhibition (IE)
measured.endpoint: inhibition at 0.1 µM (%)
Provide the reading as a plain figure in %.

molecule | target.of.assay | inhibition at 0.1 µM [%]
CCCCCC1(C)Cc2c(C)c(O)c(C)c(C)c2O1 (stereo not drawn) | 12-Lipoxygenase (Rattus norvegicus) | 2
Cc1c(C)c2c(c(C)c1O)CC(C)(CCCc1ccccc1)O2 (stereo not drawn) | 12-Lipoxygenase (Rattus norvegicus) | 9

// below: inhibition at 0.1 µM requested for another molecule
Inquiry: Fill in the recorded inhibition at 0.1 µM for this molecule, with 12-Lipoxygenase (Rattus norvegicus) as test system: CCC/C=C\C1(C)Cc2c(C)c(O)c(C)c(C)c2O1 (stereo not drawn)
Reply text: 97

---

# target.of.assay: 12-Lipoxygenase (Rattus norvegicus)
# Construct: from tissue; host or cells: Wistar rat platelets (PRP mixed with PPP, from citrated aortic blood)
# assay.method.text: 12-Lipoxygenase inhibitory action: 12-HETE production in Wistar rat platelets (HPLC)
# Format: cell-based
# condition.context: 10^-6 M, read-out: 12-Lipoxygenase Inhibitory Action, % Inhibition (IE)
Entry flag: satisfied if inhibition at 1 µM reaches 50%; not satisfied if it does not.

compound | group
Cc1ccc(/C=C\C2(C)Cc3c(C)c(O)c(C)c(C)c3O2)cc1 (centres unmarked) | not satisfied
CCCCCC1(C)Cc2c(C)c(O)c(C)c(C)c2O1 (centres unmarked) | not satisfied

Inquiry: Decide: inhibition at 1 µM of Cc1c(C)c2c(c(C)c1O)CC(C)(CCCc1ccccc1)O2 (centres unmarked) >= 50%?
Reply text: satisfied

Inquiry: Follow-up item: Cc1c(C)c2c(c(C)c1O)CC(C)(/C=C/Cc1ccccc1)O2 (centres unmarked)
Reply text: satisfied

Inquiry: Follow-up item: Cc1c(C)c2c(c(C)c1O)CC(C)(CCc1ccc(F)cc1)O2 (centres unmarked)
Reply text: not satisfied

Inquiry: Follow-up item: Cc1c(C)c2c(c(C)c1O)CC(C)(CBr)O2 (centres unmarked)
Reply text: not satisfied

Inquiry: Follow-up item: CCCCCCCCCCCCCC1(C)Cc2c(C)c(O)c(C)c(C)c2O1 (centres unmarked)
Reply text: not satisfied

---

Entries and their measured inhibition at 1 µM follow.
# target.of.assay: 12-Lipoxygenase (Rattus norvegicus, UniProt F1LQ70)
# Construct: from tissue; host or cells: Wistar rat platelets (PRP mixed with PPP, from citrated aortic blood)
# assay.method.text: 12-Lipoxygenase inhibitory action: 12-HETE production in Wistar rat platelets (HPLC)
# Assay type: cell-based
# condition.context: 10^-6 M, read-out: 12-Lipoxygenase Inhibitory Action, % Inhibition (IE)
# Method: Through the descending aorta of a Wistar rat, 10 ml of blood was collected, under anesthesia, together with citric acid of a volume corresponding to 10%. PRP and PPP were respectively prepared, then they were mixed to make the number of platelets to be 10^9 /ml. […] 100 μl of this mixture solution was subjected to high performance liquid chromatography to quantitatively determine 12-HETE. […]
Provide the reading as a plain figure in %.

Here is how some molecules turned out for inhibition at 1 µM.
molecule | measured.endpoint | recorded.value
COc1cccc(/C=C\C2(C)Cc3c(C)c(O)c(C)c(C)c3O2)c1 (stereo not shown) | inhibition at 1 µM | 99
COc1ccc(CCC2(C)Cc3c(C)c(O)c(C)c(C)c3O2)cc1 (stereo not shown) | inhibition at 1 µM | 28
Cc1c(C)c2c(c(C)c1O)CC(C)(/C=C\Cc1ccccc1)O2 (stereo not shown) | inhibition at 1 µM | 99

// below: inhibition at 1 µM requested for another molecule
Inquiry: Recorded inhibition at 1 µM of CCCCCCCCCCC/C=C\C1(C)Cc2c(C)c(O)c(C)c(C)c2O1 (stereo not shown) , please.
Reply text: 48
